half-life at 1 μM: recorded values
Test: Metabolic stability in pooled human liver microsomes (half-life)
Assay type: in vitro ADME
Conditions: pH 7.6, 37° C., 1 μM test compound, read-out: Half-life t1/2
Assay Metric: half-life at 1 μM

• Cc1cc(C2CC2)ccc1OCC(C)(C)NC(=O)[C@H]1[C@@H]2CNC[C@@H]21 = > 2.17 h
• CC(C)(NC(=O)[C@H]1[C@@H]2CNC[C@@H]21)c1n[nH]c2ccccc12 = > 2.17 h
• Cc1cccc2c(C(C)(C)NC(=O)[C@H]3[C@@H]4CNC[C@@H]43)n[nH]c12 = > 2.17 h
• Cc1cccn2c(C(C)(C)NC(=O)[C@H]3[C@@H]4CNC[C@@H]43)nc(C)c12.Cl = > 2.17 h
• CC(C)(NC(=O)[C@H]1[C@@H]2CNC[C@@H]21)c1n[nH]c2c(C(F)(F)F)cccc12 = > 2.17 h
